Kindly return YES if reported melting point is no lower than 40 °C; return NO if it is lower.

Illustrative cases are given below, each with its answer.
CCCCCCI | NO
COc1ccc(N)c(C)c1 | NO
CCCCCCCCCCCCOP(=O)(O)O [mono-n-dodecyl phosphate] | YES
Cc1ccc(C(=O)CCC(=O)O)cc1 | YES
CN(C)c1cccc(O)c1 | YES
C#CC(C)(C)C [3,3-Dimethylbut-1-yne] | NO
O=[N+]([O-])c1cc[n+]([O-])c(Cl)c1F [2-chloro-3-fluoro-4-nitropyridine n-oxide] | YES
CC(C=CC=C(C)/C=C/C1=C(C)CCCC1(C)C)=CC(=O)O | YES
CCCNC(N)=O | YES

Read the next record carefully.
Has N#Cc1cc(F)c(N)cc1F a recorded melting point greater than or equal to 40 °C? YES

###

Kindly supply the reported melting point values for the records listed here.
One number for each entry, in °C.

c1ccc2nc3ccccc3cc2c1 | 109
Nc1ccc(C(O)(C(F)(F)F)C(F)(F)F)cc1 | 150
C=C[C@H]1C[N@@]2CC[C@H]1C[C@@H]2[C@@H](O)c1ccnc2ccc(OC)cc12 | 170
O=C(O)c1ccc(N2C(=O)C3ON=C(C(=O)c4ccc(Cl)cc4)C3C2=O)cc1 (centres undefined) | 144
O=C(O)CNC(=O)c1ccccc1 | 190
Cc1cc(C)c(CC(=O)O)c(C)c1 | 169
c1ccc2c(c1)oc1ccccc12 | 82
Nc1ccc(Br)c(Cl)c1 | 64
Brc1ccc(-c2ccc(Br)cc2)cc1 | 170
CC1CC1 | -177

Provide the reported melting point of each entry below, same order.
1. CN(C)CCN1C(=O)c2ccccc2N(C)c2ccccc21 [dibenzepin]
2. C=CCOc1nc(OCC=C)nc(OCC=C)n1
3. CC(C)(C)CS
4. COC(=O)n1c(C)c(C)c2ccccc21 [methyl 2,3-dimethyl-1H-indole-1-carboxylate]
5. [2H]OC([2H])([2H])C([2H])(O[2H])C([2H])([2H])O[2H]
6. CC(C)NCC(O)c1cc(O)cc(O)c1 (centres undefined)
7. COC(=O)c1cccc(C(=O)OC)c1 [dimethyl isophthalate]
8. COc1ccc(C(=O)CCC(=O)O)cc1OC

116
27
-67
50
20
100
69
160

For the molecule CC(C)(C)OC(=O)N[C@@H](Cc1ccc(Cl)cc1Cl)C(=O)O , what melting point is on record? 135

###

Criterion: melting point strictly less than 100 °C. Met: class 1. Not met: class 0.

Is melting point strictly under 100 °C for the entry Brc1cccc2cc[nH]c12 [7-bromoindole] ? class 1

Is melting point strictly under 100 °C for the entry CC(C)(F)C(Br)C(=O)O (stereo not drawn) [2-bromo-3-fluoroisovaleric acid] ? class 1

Is melting point strictly under 100 °C for the entry COc1ccc(C)cc1O [2-methoxy-5-methylphenol] ? class 1

###

Kindly supply the reported melting point values for the records listed here.
Numbers only, in °C.

Look over these answered cases.
C=C[C@H]1C[N@@]2CC[C@H]1C[C@H]2[C@H](O)c1ccnc2ccccc12 | 204
C=Cc1ccc(C(C)=O)cc1 | 37
N#Cc1c(Cl)cccc1Cl | 145
CCCCCCCCCCOc1ccc(/C=N/c2ccc(/C=C/C(=O)OCC)cc2)cc1 | 115
Cc1cc(Cl)nc(Cl)c1C#N | 110
CCCCNc1cc(C(=O)O)cc(S(N)(=O)=O)c1Oc1ccccc1 [bumetanide] | 230
CC(=O)OC1(C(C)=O)CCC2(C)C(CCC3C4CCCC4(C)CCC32)C1 (centres undefined) [3-acetylandrostan-3-yl acetate] | 165
O=C(Nc1ccccc1)Nc1ccccc1 | 238

For the compound OCc1ccccc1Br , what melting point is on record? 81
